Discrimination Ratios [3H]DA reuptake/DAT binding values for the compounds below.
SYSTEM TESTED: human dopamine transporter (hDAT) (Homo sapiens, UniProt Q01959)
Sequence (Q01959 whole entry): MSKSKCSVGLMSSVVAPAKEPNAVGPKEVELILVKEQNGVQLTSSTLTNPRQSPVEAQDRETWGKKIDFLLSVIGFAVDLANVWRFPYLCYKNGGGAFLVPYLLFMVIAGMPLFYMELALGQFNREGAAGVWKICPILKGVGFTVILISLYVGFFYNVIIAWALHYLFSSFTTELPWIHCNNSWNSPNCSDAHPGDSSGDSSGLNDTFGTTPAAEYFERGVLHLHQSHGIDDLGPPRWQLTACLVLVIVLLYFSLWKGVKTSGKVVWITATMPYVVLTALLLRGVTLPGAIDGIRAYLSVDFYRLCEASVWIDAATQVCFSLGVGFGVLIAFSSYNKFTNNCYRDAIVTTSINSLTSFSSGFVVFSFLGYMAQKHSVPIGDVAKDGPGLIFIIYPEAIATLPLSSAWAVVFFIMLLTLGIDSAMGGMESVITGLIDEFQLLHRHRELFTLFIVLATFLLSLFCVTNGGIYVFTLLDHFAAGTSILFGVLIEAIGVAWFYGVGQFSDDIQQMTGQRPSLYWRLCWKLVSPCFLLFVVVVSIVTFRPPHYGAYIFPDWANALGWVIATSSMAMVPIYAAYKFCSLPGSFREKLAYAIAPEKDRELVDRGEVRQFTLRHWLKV
EXPERIMENT NOTES: cell-based
STATED CONDITIONS: Table 2-1
PROPERTY: Discrimination Ratios [3H]DA reuptake/DAT binding

COMPOUND: O=C(NCC1CCCN(CCCCOC(c2ccc(F)cc2)c2ccc(F)cc2)C1)c1cccc(C(F)(F)F)c1 (stereo not shown)
REPORTED MEASUREMENT: 0.1
--
COMPOUND: NCC1CCCN(CCCCOC(c2ccc(F)cc2)c2ccc(F)cc2)C1 (stereo not shown)
REPORTED MEASUREMENT: 0.3
--
COMPOUND: O=C(NCc1ccc(F)cc1)NCC1CCCN(CCCCOC(c2ccc(F)cc2)c2ccc(F)cc2)C1 (stereo not shown)
REPORTED MEASUREMENT: 0.4
--
COMPOUND: O=C(NCC1CCCN(CCCCOC(c2ccc(F)cc2)c2ccc(F)cc2)C1)Nc1ccc(F)cc1 (stereo not shown)
REPORTED MEASUREMENT: 1.0
